Biological target: human CYP17A1 (CYP171dH) (Homo sapiens, UniProt P05093)
Sequence (P05093 with tags, fused parts or gaps limits assumed): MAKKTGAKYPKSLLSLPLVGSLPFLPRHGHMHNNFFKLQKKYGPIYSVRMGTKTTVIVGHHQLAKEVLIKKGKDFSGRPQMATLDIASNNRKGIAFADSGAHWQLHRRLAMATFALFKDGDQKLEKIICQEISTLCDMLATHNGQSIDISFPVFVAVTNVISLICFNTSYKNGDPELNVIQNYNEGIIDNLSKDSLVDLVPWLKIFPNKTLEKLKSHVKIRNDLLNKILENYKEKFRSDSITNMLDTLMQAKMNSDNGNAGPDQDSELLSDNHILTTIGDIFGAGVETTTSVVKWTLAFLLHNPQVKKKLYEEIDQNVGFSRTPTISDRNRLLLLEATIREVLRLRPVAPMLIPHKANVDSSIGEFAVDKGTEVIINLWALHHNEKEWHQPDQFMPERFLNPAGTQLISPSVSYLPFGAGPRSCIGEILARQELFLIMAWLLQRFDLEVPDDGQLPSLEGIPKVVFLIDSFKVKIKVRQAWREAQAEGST
Experiment: CYP17 inhibition studies
Format: biochemical
Conditions: each in duplicate, from dose-response curves
property_measured: IC50 (µM)
Answers are plain numbers, in µM.

C[C@]12CC[C@H](O)CC1=CC[C@@H]1[C@@H]2CC[C@]2(C)C(n3cnc4ccccc43)=CC[C@@H]12 [Compound 5, reference compound]
0.752

get_value(item= C[C@]12CC[C@H](O)CC1=CC[C@@H]1[C@@H]2CC[C@]2(C)C(c3cccnc3)=CC[C@@H]12 [Abiraterone alcohol (3b), abiraterone alcohol, reference compound] , readout=IC50) returns 0.206
